# ASSAYED SYSTEM: SARS-COV-2 RBD extracellular domain expressed with a C-terminal mouse IgG2a (SARS-COV-2 RBD-mFc) (SARS-CoV-2)
# TEST SUMMARY: SPR, captured mAb, RBD-mFc in solution, 37 C
VALUE TYPE: koff (s⁻¹)
Give a bare numeral; the unit s⁻¹ is implied.

Reported koff for mAb10939 (antibody, V domains shown) VH: EVQLVESGGGLVQPGGSLRLSCAASGLTVSSNYMNWVRQVPGKGLEWVSVIYSGGSKFYVDSVKGRFTISRHNSKNTLYLQMNSLRPEDTAVYYCTRDAQYYGMDVWGQGTTVTVSS VL: DIQMTQSPSSLSASVGDRVTITCRASQSISTYLHWYQQKPGEAPKLLIYAASSLQSGVPSRFSGSGSGTDFTLTISSLQPEDFATYYCQQSYSTPPEIFGQGTKLEIKR : what is it?
0.000165
